B1: CCDC89 (parent)
chain: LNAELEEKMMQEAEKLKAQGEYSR

# Variants of: B1
# PROTOCOL SUMMARY: protein stability index of a GFP-peptide fusion (GPS, HEK-293T) (PSI 1-6); higher = more stable;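 note: lentivirally expressed fusions sorted by FACS into six bins by GFP to DsRed ratio, PSI derived from sequencing read proportions per bin multiplied by bin number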
# CONDITION: c terminus: a fixed tail appended
QUANTITY KIND: protein stability index
Note: the reply should be a number with no unit written.

Examples with their reported protein stability index follow.
[
  {
    "SEQUENCE CONTENT": "LNAELEEKFMQEAEKLKAQGEYSR [M9F]",
    "RECORDED RESULT": 4.97
  },
  {
    "SEQUENCE CONTENT": "LSAELEEKMMQEAEKLKAQGEYSR [N2S]",
    "RECORDED RESULT": 5.11
  },
  {
    "SEQUENCE CONTENT": "LNAELEEKMMQEAEELKAQGEYSR [K15E]",
    "RECORDED RESULT": 5.06
  },
  {
    "SEQUENCE CONTENT": "LNKELEEKMMQEAEKLKAQGEYSR [A3K]",
    "RECORDED RESULT": 5.28
  },
  {
    "SEQUENCE CONTENT": "LNCELEEKMMQEAEKLKAQGEYSR [A3C]",
    "RECORDED RESULT": 4.69
  },
  {
    "SEQUENCE CONTENT": "LNAELEEKMMQEAESLKAQGEYSR [K15S]",
    "RECORDED RESULT": 4.38
  }
]

Challenge: For the variant shown here, LNAELEEKMMQESEKLKAQGEYSR [A13S] , give the reported protein stability index.
Response given: 4.68

Challenge: Further, for LNAELEEKMMQEAEKDKAQGEYSR [L16D] ?
Response given: 5.77

Challenge: Also LNAELEEKMMQEAEKLKAQGEYKR [S23K] ?
Response given: 4.92

Challenge: Again, but for LNAELEEKMMQEAEKLKAQGEGSR [Y22G]
Response given: 5.63

Challenge: Next variant up: LNAELEEKMMQEAEKLKAQREYSR [G20R]
Response given: 4.85

Challenge: And the next one, LNAELEEKMVQEAEKLKAQGEYSR [M10V] ?
Response given: 5.13

Challenge: Repeat with LNAELEEKKMQEAEKLKAQGEYSR [M9K]
Response given: 3.98

Challenge: Now try LNAELEEKMMHEAEKLKAQGEYSR [Q11H] .
Response given: 4.84

Challenge: Can you handle LNAELEEKMDQEAEKLKAQGEYSR [M10D] next?
Response given: 5.08
